Molecular target: FL-SMARCA2 (full-length human SMARCA2 isoform 1) (Homo sapiens, UniProt P51531)
Construct: FLAG tag (YKDDDDK) (C); made in house; host or cells: Sf21 insect cells (baculovirus, pFastBacI)
Sequence (P51531 with tags, fused parts or gaps): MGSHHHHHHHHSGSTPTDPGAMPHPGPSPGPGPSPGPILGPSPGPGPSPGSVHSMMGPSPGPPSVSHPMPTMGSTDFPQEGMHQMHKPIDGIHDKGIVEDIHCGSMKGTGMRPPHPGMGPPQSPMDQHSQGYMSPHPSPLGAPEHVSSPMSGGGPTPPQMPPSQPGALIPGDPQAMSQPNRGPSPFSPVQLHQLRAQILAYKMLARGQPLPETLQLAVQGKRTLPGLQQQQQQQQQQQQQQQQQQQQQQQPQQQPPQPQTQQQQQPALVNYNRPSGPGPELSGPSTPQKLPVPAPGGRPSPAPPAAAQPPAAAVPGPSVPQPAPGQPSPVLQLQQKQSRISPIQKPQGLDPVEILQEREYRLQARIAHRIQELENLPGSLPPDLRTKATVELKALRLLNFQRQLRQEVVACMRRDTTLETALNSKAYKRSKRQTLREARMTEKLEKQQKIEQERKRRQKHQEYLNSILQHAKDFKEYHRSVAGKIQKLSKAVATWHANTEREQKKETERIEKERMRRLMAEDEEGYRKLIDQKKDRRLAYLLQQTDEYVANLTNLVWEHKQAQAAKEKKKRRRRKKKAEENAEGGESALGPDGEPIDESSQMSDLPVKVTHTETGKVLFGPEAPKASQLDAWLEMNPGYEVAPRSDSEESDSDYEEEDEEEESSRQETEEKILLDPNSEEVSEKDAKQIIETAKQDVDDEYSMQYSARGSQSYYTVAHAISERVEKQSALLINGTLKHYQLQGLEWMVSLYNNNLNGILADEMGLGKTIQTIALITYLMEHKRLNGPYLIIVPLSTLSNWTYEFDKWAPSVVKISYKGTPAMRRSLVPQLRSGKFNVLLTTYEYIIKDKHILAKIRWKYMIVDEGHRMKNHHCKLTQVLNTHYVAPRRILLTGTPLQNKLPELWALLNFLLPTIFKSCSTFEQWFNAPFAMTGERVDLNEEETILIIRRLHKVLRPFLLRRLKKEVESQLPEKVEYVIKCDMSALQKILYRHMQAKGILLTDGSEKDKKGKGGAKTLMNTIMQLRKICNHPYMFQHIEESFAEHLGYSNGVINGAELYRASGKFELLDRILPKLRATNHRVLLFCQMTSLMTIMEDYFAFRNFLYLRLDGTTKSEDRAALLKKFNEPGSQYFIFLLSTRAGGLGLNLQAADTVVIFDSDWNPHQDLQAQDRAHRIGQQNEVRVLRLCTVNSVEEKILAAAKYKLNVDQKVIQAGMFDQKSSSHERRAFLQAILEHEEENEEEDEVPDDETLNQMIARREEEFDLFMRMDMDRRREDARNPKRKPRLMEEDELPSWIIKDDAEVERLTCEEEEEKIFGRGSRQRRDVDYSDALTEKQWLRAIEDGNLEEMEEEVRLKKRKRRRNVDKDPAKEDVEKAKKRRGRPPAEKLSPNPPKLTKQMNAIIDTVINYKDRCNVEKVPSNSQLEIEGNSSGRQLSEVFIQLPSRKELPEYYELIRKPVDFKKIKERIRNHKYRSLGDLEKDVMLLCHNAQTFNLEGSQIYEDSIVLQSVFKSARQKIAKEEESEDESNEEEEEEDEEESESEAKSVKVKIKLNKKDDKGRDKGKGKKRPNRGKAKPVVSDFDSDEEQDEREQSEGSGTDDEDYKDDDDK
Test: SMARCA2 ATPase activity assay (ADP-Glo, chicken mononucleosome substrate)
Format: biochemical
Conditions: Table 3.1; ATPase assay, enzyme 5 nM, ATP 250 uM, chicken mononucleosome 10 nM, 30 min preincubation
pIC50 values for the molecules below.
pIC50 (log units): -log10 of the concentration in mol/L.

Data request: Dear colleague, I am looking for the recorded pIC50 of the following molecule: `N#Cc1[nH]c(C(=O)Nc2ccc(=O)n(CC(F)F)c2)cc1Cl`
Data returned: 6.93

Data request: Entry `CCn1cc(NC(=O)c2csc(Cl)n2)ccc1=O` please
Data returned: 4.77

Data request: Now consider `O=C(Nc1cc(C(F)(F)F)c(=O)n(CC(F)F)c1)c1cc(F)c(Cl)s1` and answer again.
Data returned: 5.91

***
Data request: May I ask what pIC50 has been recorded for `O=C(Nc1cc(F)c(=O)n(CCF)c1)c1cc(Cl)c(C(F)(F)F)s1` ?
Data returned: 7.45

Data request: Here is the next molecule: `O=C(Nc1ccc(=O)n(CC(F)(F)F)c1)c1cc(Cl)c(Cl)n1CCF`
Data returned: 4.92

Data request: Check `O=C(Nc1cc(F)c(=O)n(CC(F)F)c1)c1cc(C#Cc2cccnc2)c(Cl)s1` too.
Data returned: 7.51

Data request: Item: `CCn1cc(NC(=O)c2cc(Cl)c(-c3ncco3)s2)ccc1=O`
Data returned: 4.48

Data request: Now consider `C#Cc1cc(NC(=O)c2cc(F)c(Cl)s2)cn(CC(F)F)c1=O` .
Data returned: 6.56

---

Target: FL-SMARCA2 (full-length human SMARCA2 isoform 1) (Homo sapiens)
Construct: FLAG tag (YKDDDDK) (C); made in house; host or cells: Sf21 insect cells (baculovirus, pFastBacI)
Assay: SMARCA2 ATPase activity assay (ADP-Glo, chicken mononucleosome substrate)
Assay type: biochemical
Details: Table 3.1; ATPase assay, enzyme 5 nM, ATP 250 uM, chicken mononucleosome 10 nM, 30 min preincubation
property_label: log10 IC50 (log10 of the value in µM)
Heads up, the numbers here are log10 of IC50 in µM units.

For orientation, consider the following solved cases.
Data request: Tell me the measured log10 IC50 of `O=C(Nc1cc(F)c(=O)n(CCF)c1)c1cc(C(F)(F)F)no1` , please.
Data returned: 0.79

Data request: Same lookup for `CCn1cc(NC(=O)c2cc(Cl)c(Cl)n2C)cc(F)c1=O` , please.
Data returned: -0.51

Data request: Record: `CCn1cc(NC(=O)c2cc(Cl)c(C)s2)ccc1=O`
Data returned: 1.06

Data request: Follow-up entry: `O=C(Nc1cc(F)c(=O)n(CC(F)F)c1)c1cc(Cl)c(C(F)(F)F)s1`
Data returned: -1.62

Now turn to the next molecule.
Data request: What value of log10 IC50 has been recorded for this entry: `N#Cc1[nH]c(C(=O)Nc2cc(C#N)c(=O)n(CCF)c2)cc1Cl`
Data returned: -0.63

---

Target: FL-SMARCA4 (Homo sapiens)
Sequence (P51532 whole entry): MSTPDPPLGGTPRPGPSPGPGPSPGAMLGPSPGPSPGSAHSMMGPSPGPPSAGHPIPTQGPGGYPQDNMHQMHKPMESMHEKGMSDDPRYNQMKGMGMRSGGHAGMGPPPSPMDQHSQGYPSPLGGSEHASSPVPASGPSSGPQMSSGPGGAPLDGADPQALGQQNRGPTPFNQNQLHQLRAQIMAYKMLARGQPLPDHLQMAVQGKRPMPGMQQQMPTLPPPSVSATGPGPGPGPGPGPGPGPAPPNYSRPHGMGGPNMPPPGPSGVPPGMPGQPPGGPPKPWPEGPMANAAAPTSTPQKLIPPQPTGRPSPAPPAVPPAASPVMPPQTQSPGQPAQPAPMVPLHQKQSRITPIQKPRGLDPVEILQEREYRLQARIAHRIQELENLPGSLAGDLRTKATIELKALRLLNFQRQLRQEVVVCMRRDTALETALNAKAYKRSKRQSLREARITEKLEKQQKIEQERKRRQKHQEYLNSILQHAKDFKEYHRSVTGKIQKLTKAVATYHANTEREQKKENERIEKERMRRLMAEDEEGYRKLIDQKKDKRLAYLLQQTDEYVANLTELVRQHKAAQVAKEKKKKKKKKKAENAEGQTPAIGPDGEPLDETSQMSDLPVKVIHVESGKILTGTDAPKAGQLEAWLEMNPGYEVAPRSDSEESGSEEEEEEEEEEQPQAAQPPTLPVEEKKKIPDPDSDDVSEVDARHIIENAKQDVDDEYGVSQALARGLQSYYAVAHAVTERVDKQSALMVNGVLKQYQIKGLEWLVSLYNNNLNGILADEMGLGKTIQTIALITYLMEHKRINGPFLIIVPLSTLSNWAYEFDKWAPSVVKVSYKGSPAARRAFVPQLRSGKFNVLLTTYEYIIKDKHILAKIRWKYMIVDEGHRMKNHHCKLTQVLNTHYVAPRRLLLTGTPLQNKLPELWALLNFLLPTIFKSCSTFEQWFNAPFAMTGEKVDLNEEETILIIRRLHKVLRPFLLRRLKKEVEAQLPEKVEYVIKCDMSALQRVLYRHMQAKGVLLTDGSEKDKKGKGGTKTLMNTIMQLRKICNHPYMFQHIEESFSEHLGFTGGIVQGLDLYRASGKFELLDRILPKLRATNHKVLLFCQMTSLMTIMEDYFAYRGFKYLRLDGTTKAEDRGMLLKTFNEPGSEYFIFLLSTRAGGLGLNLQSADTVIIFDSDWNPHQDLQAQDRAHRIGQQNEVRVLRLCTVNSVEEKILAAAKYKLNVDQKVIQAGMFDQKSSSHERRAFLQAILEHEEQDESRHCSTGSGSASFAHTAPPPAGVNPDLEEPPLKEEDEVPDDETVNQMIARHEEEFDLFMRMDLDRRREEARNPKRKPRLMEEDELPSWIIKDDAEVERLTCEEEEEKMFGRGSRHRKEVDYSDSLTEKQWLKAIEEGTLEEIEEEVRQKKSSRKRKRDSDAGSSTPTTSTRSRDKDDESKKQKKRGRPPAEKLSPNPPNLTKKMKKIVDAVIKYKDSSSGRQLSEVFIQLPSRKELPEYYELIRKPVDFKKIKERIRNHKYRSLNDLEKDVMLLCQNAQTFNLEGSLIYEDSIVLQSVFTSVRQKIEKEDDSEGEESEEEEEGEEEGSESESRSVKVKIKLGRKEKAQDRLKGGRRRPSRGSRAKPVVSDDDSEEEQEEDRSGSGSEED
Experiment: SMARCA4 ATPase activity assay (ADP-Glo, chicken mononucleosome substrate)
Conditions: FL-SMARCA4 IC50, Table 3.2; ATPase assay, enzyme 5 nM, ATP 250 uM, chicken mononucleosome 10 nM, 30 min preincubation
Overview of reported pIC50 across a group of compounds:
To interpret pIC50, take it as minus log10 of a concentration measured in moles per litre.

Use these answered entries as a reference point.
Data request: So what's the measured pIC50 for this one? O=C(Nc1cc(F)c(=O)n(CC(F)F)c1)c1cnc(C(F)(F)F)s1 [Compound 297]
Data returned: 6.35

Data request: Could you do the same for N#Cc1cc(C(=O)Nc2cc(F)c(=O)n(CCF)c2)oc1Cl [Compound 245] , please?
Data returned: 4.92

Data request: Cool, now CCn1cc(NC(=O)c2cc(C#CCN(C)C)c(Cl)s2)ccc1=O [Compound 286]
Data returned: 4.78

Next:
Data request: Which pIC50 is reported for this compound? CCn1cc(NC(=O)c2ccn(C)c2Cl)ccc1=O [Compound 115]
Data returned: 4.78
